Test system: T-47D breast
Experiment Description: NCI-60 one-dose screen, 48 h (100 = growth as untreated, 0 = no growth, -100 = all killed)
Condition Parameters: 10 µM
Description: Growth inhibition of the T-47D human tumor cell line is measured as a screen for anti-cancer activity. Cells are grown in 96 well plates and exposed to the test compound for 48 hours. Compounds are tested at a single concentration, which is 10^-5 M for most compounds. The reported endpoint is percent growth (GI% or GIPRCNT), where numbers from 0 - 100% represent growth inhibition, and numbers from -100% - 0 represent cell death. For example, a value of 40 represents 60% growth inhibition. […]
This is part of a sample that, as a whole, favours compounds with a hit. Of some 83,000 tested, about 20% had one in any assay.
Categorize each record by its growth using bottom range (below 50%), center range (50% to below 70%), top range (70% or more)

[
  {
    "Compound": "CN(CC(=O)O)c1ccc(/C=C/c2ccnc3ccccc23)cc1",
    "Label": "center range"
  },
  {
    "Compound": "COc1ccc2oc(-c3ccc(Cl)cc3)c(N3CCN(C)CC3)c2c1",
    "Label": "bottom range"
  },
  {
    "Compound": "COc1ccc2c(c1)[nH]c1c(/C=C/c3ccccc3)nccc12",
    "Label": "bottom range"
  },
  {
    "Compound": "N#C/C(=C/N1C(=O)/C(=C/c2ccc([N+](=O)[O-])cc2)SC1=S)c1nc2ccccc2s1",
    "Label": "center range"
  },
  {
    "Compound": "O=S(=O)(c1cc(Cl)ccc1O)c1cc(Cl)ccc1O",
    "Label": "center range"
  },
  {
    "Compound": "O=C(O)c1ccccc1.[Ag]",
    "Label": "top range"
  },
  {
    "Compound": "NCc1c(O)ccc2ccccc12",
    "Label": "top range"
  },
  {
    "Compound": "CN(C)c1ccc(/C=C/c2ccnc3ccccc23)cc1N",
    "Label": "bottom range"
  },
  {
    "Compound": "O=C1C(Cl)=C(Cl)C(Cl)(Cl)C(Cl)C1(Cl)Cl (configuration not stated)",
    "Label": "top range"
  },
  {
    "Compound": "O=c1[nH]cc(/C=N\\Nc2ccccc2)c(=O)[nH]1",
    "Label": "bottom range"
  }
]

----------
Test system: OVCAR-3 ovarian
Experiment Description: NCI-60 one-dose screen, 48 h
Condition Parameters: 10 µM
Protocol: Growth inhibition of the OVCAR-3 human tumor cell line is measured as a screen for anti-cancer activity. Cells are grown in 96 well plates and exposed to the test compound for 48 hours. Compounds are tested at a single concentration, which is 10^-5 M for most compounds. The reported endpoint is percent growth (GI% or GIPRCNT), where numbers from 0 - 100% represent growth inhibition, and numbers from -100% - 0 represent cell death. For example, a value of 40 represents 60% growth inhibition. […]
Compounds without any hit were thinned out: in the full panel of roughly 83,000, 20% have a hit. Active and inactive are the calls of the source. Rule for the calls: active = growth percent below 10; inactive = the rest.
Outcome codes: T (active), F (inactive)

[
  {
    "Compound Structure": "O=C(CNS(=O)(=O)Cc1ccccc1)NNc1ccccc1",
    "Assay System": "OVCAR-3 ovarian",
    "Label": "F"
  },
  {
    "Compound Structure": "O=C1c2cccc3cc([N+](=O)[O-])cc(c23)C(=O)N1CCN1CCCC1",
    "Assay System": "OVCAR-3 ovarian",
    "Label": "T"
  },
  {
    "Compound Structure": "COc1ccc2oc(-c3ccc(Cl)cc3)c(N3CCN(C)CC3)c2c1",
    "Assay System": "OVCAR-3 ovarian",
    "Label": "T"
  },
  {
    "Compound Structure": "O=C(O)c1ccccc1.[Ag]",
    "Assay System": "OVCAR-3 ovarian",
    "Label": "F"
  },
  {
    "Compound Structure": "O=c1[nH]cc(/C=N\\Nc2ccccc2)c(=O)[nH]1",
    "Assay System": "OVCAR-3 ovarian",
    "Label": "F"
  },
  {
    "Compound Structure": "S=C1SCN(CCc2ccccc2)CN1CCc1ccccc1",
    "Assay System": "OVCAR-3 ovarian",
    "Label": "F"
  }
]
